Target Desc: Prostaglandin E2 receptor EP1 subtype (Homo sapiens, UniProt P34995)
Sequence (P34995 whole entry): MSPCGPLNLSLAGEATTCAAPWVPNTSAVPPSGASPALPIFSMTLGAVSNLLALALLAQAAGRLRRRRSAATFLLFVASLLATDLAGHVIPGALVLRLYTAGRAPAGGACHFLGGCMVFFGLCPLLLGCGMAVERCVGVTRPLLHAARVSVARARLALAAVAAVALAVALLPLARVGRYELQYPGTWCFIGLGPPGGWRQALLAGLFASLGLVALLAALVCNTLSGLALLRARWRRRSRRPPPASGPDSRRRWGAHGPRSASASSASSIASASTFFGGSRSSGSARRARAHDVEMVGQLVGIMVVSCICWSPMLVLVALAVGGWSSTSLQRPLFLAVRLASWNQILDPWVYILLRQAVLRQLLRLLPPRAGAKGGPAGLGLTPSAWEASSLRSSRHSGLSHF
Assay Text: Antagonist activity at EP1 receptor expressed in CHO-K1 cells assessed as inhibition of PGE2-stimulated calcium ion mobilization by FLIPR assay
pKi: −log10 of the molar value.

# Chemical Smiles, Censoring Sign, pKi
records = [
    ("O=C(O)c1cc(-c2cccs2)n(Cc2cc(Br)ccc2OCc2ccccc2)n1", "=", 6.21),
    ("Cc1cc(C(=O)O)nn1Cc1cc(F)ccc1OCc1ccc(F)cc1F", "=", 8.10),
    ("Cc1cc(C(=O)O)nn1Cc1cc(Br)ccc1OCc1c(F)cccc1F", "=", 6.98),
    ("O=C(O)c1ccn(Cc2cc(Br)ccc2OCc2ccccc2)n1", "=", 7.26),
    ("Cc1cc(C(=O)O)nn1Cc1cc(Br)ccc1OCc1cccc([N+](=O)[O-])c1", "=", 6.47),
    ("O=C(O)c1cn(Cc2cc(Br)ccc2OCc2ccccc2)nn1", "<", 5.70),
    ("Cc1cc(C(=O)O)nn1Cc1cc(Br)ccc1OCc1cccc(Cl)c1", "=", 6.37),
    ("Cc1cc(C(=O)O)nn1Cc1cc(Br)ccc1OCc1ccc(F)cc1", "=", 7.93),
    ("O=C(O)c1nn(Cc2cc(Br)ccc2OCc2ccccc2)cc1CO", "<", 5.70),
    ("Cc1cc(C(=O)O)nn1Cc1cc(Br)ccc1OCc1ccc(C(F)(F)F)cc1", "=", 7.01),
    ("O=C(O)c1nn(Cc2cc(Br)ccc2OCc2ccccc2)cc1Br", "<", 5.70),
    ("Cc1cc(C(=O)O)nn1Cc1cc(Br)ccc1OCc1ccc(Cl)cc1", "=", 8.06),
    ("O=C(O)c1cnn(Cc2cc(Br)ccc2OCc2ccccc2)c1", "<", 5.70),
    ("Cc1cc(C(=O)O)nn1Cc1cc(Br)ccc1OCc1ccccc1", "=", 7.82),
    ("O=C(O)c1cncn1Cc1cc(Br)ccc1OCc1ccccc1", "<", 5.70),
    ("Cc1cc(C(=O)O)nn1Cc1cc(Br)ccc1OCc1ccc(C(C)(C)C)cc1", "<", 5.70),
    ("Cc1cc(C(=O)O)nn1Cc1cc(Br)ccc1OCc1cc(Cl)cc(Cl)c1", "=", 5.95),
    ("CCCCc1cc(C(=O)O)nn1Cc1cc(Br)ccc1OCc1ccccc1", "=", 6.01),
    ("Cc1cc(C(=O)O)nn1Cc1cc(Br)ccc1OCc1cccc(C(F)(F)F)c1", "=", 5.96),
    ("O=C(O)c1cccc(-c2sccc2-c2cc(Cl)ccc2OCc2ccccc2)c1", "=", 8.90),
    ("Cc1cc(C(=O)O)nn1Cc1cc(Br)ccc1OCc1ccc(Cl)c(C(F)(F)F)c1", "<", 5.70),
    ("Cc1cc(C(=O)O)nn1Cc1cc(Br)ccc1OCc1ccc(F)cc1F", "=", 8.58),
]

// provenance: ChEMBL document CHEMBL1149349
